Target: human LPAR1 (Homo sapiens, UniProt Q92633)
Construct: by own knowledge a rat neuroblastoma line
Sequence (Q92633 whole entry): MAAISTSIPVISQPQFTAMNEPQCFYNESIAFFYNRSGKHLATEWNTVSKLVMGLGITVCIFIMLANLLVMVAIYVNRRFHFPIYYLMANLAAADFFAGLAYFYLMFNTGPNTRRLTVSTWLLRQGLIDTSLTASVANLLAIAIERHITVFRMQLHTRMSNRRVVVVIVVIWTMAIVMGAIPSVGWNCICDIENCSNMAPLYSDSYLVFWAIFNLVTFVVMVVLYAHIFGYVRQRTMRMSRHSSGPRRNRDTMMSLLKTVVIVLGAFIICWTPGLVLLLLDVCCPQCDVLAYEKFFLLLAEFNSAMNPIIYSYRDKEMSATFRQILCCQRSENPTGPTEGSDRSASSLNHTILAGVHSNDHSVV
Experiment: In vitro functional assay of lysophosphatidic acid receptor 1 activity (calcium flux, Fluo-4 NW, LPA 18:1 at EC80)
Settings: B103 cells stably expressing human LPAR1
Property: IC50 (nM)
Give bare numbers, in nM.

Recall and state the measured IC50 for `COc1ccc(NC(=O)N(c2ccccc2C(C)C)[C@H]2CC[C@H](C(=O)O)CC2)c(OC(F)F)n1` . 10

// provenance: patent US20260217653A1
